- Target Of Assay: Dimeric Human Ang-2FD conjugated to human IgG1 (human)
- Sequence (chain, as listed by the source limits assumed): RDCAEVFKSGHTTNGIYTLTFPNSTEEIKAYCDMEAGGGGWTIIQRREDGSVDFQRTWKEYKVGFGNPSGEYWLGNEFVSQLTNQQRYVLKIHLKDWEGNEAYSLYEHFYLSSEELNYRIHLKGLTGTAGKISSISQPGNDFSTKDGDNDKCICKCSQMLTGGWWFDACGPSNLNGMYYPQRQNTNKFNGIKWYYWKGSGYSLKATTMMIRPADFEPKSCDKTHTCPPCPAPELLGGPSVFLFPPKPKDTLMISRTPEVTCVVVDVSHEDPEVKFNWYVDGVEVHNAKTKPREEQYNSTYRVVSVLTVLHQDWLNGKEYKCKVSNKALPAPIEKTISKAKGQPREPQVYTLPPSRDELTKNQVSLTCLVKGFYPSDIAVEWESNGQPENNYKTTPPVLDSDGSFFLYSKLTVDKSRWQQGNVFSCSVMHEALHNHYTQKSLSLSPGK
- Protocol Description: SPR, human IgG1 antibody captured
Measure Name: Kd (nM)
Write it as a number; the unit nM goes unstated.

Field: example entries. Status: answers known.
[[record]]
binder = "H1H743N (antibody, V domains shown) VH: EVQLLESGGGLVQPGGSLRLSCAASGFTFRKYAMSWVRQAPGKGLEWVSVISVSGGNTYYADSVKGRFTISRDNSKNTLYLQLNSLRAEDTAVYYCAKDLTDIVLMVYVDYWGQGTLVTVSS VL: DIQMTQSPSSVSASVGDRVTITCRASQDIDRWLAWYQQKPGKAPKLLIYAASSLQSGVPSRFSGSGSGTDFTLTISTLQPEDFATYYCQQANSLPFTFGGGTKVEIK"
data_value = 0.0882

[[record]]
binder = "H1H742N (antibody, V domains shown) VH: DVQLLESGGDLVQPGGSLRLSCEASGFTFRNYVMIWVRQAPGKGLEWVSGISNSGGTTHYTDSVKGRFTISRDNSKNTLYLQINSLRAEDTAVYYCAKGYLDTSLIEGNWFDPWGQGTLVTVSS VL: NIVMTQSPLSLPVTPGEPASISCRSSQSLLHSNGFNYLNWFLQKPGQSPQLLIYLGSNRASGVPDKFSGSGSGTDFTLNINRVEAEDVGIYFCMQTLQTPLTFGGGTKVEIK"
data_value = 0.186

[[record]]
binder = "H1H728N (antibody, V domains shown) VH: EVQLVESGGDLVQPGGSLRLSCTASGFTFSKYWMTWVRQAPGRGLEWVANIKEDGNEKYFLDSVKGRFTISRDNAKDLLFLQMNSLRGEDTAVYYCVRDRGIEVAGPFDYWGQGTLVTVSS VL: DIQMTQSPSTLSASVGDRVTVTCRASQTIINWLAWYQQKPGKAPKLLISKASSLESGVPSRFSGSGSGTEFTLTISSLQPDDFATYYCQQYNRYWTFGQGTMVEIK"
data_value = 0.162


For the next question, use this binder.
Ask: Value lookup for Kd; key = H1H730N (antibody, V domains shown) VH: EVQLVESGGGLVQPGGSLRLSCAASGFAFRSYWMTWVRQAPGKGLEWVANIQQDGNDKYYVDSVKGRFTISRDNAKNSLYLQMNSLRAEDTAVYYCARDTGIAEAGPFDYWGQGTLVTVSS VL: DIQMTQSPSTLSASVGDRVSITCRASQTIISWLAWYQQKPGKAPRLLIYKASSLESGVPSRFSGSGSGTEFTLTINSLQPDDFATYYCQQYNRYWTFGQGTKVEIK
Result: 0.234
